Tested on: L1210 leukemia ip in BDF1 mice, survival T/C
Assay: NCI In Vivo Anticancer Drug Screen. Data for tumor model L1210 Leukemia (intraperitoneal) in B6D2F1 (BDF1) mice
Conditions: endpoint: mean survival time; dose: 100.0 mg/kg/injection; schedule: Q01DX001 (ip); vehicle: carboxymethylcellulose (CMC); higher = longer survival
Inconclusive results and toxic doses are left out.
measured_quantity: T/C

// below: answered compounds
compound	system_tested	result
C=CCOc1cc2c(ccc1=O)-c1c(cc(OC)c(OC)c1OC)CCC2NC(C)=O (stereo unspecified)	L1210 leukemia ip in BDF1 mice, survival T/C	104 % of control
Cc1cc(N(CCCl)CCCl)ccc1C=NCCCCN=Cc1ccc(N(CCCl)CCCl)cc1C	L1210 leukemia ip in BDF1 mice, survival T/C	106 % of control
CCCCCCCCCCCCCC(=O)N(CCCC)CCCC	L1210 leukemia ip in BDF1 mice, survival T/C	94 % of control
NNC(=O)c1ccc(N)cc1	L1210 leukemia ip in BDF1 mice, survival T/C	86 % of control
NC(Cc1c[nH]c2ccc(O)cc12)C(=O)O (stereo unspecified)	L1210 leukemia ip in BDF1 mice, survival T/C	95 % of control

# get_value(readout= T/C, system= L1210 leukemia ip in BDF1 mice, survival T/C) for `COc1ccc(-c2ccc(CC(N)=O)cc2)cc1Cl`
91 % of control

Please state recorded T/C (tested on L1210 leukemia ip in BDF1 mice, survival T/C) of `C=CCC1CCCCC1`
104 % of control

What measured T/C is associated with `Cn1c(=O)c2ncn(CC3CCCCC3)c2n(C)c1=O` on L1210 leukemia ip in BDF1 mice, survival T/C?
90 % of control

Provide value of T/C for this record tested with L1210 leukemia ip in BDF1 mice, survival T/C: NC(=S)N/N=C/c1ccc([N+](=O)[O-])s1 (tested in a mixture with another compound)
92 % of control

Given the entry `O=C(NNS(=O)(=O)c1ccc([N+](=O)[O-])cc1)c1ccccc1` , what T/C was observed with L1210 leukemia ip in BDF1 mice, survival T/C?
105 % of control

So what T/C did `Nc1ncnc2cc(O)[nH]c12` get with L1210 leukemia ip in BDF1 mice, survival T/C?
104 % of control
